Origin of measurements: PubChem BioAssay (NCI)

system: U251 CNS; assay: NCI tumour cell line growth inhibition, 48 h

| Compound | TGI |
| --- | --- |
| COc1ccc2c(c1OC)C(=O)C2 | > 100 µM |
| COc1ccc(/C=C\c2cc(OC)c(OC)c(OC)c2)cc1NC(=O)/C=C/c1ccc(OC)c(OC)c1 | > 100 µM |
| O=C(CC(C(=O)c1ccsc1)c1cccs1)c1ccccc1 (configuration not stated) | > 100 µM |
| O=C1/C(=C/c2ccc(F)cc2)COc2ccc(O)c(O)c21 | 4.19 µM |
| CCCC(=O)Oc1ccc(/C(=C(\C)c2ccc(Cl)cc2)c2ccc(OCCN(CC)CC)cc2)cc1 | 4.06 µM |
| COc1ccc(-n2cc(-c3cc(OC)c(OC)c(OC)c3)nc2SCc2cccc(C#N)c2)cc1OC | > 100 µM |
| COc1ccc(N2C(=O)C3ON(Cc4ccc(CC(N)=O)cc4)C(c4c5ccccc5c(C)c5ccccc45)C3C2=O)cc1 (configuration not stated) | > 100 µM |
| COc1ccc(Cn2cc3c(c2-c2ccccc2)CCc2cnoc2-3)cc1 | > 100 µM |
| CN(C)CCCNc1ccnc2c([N+](=O)[O-])cccc12 | > 100 µM |
| N#CC1=C(N)NC(=O)C(C#N)C12Nc1ccccc1S2 (configuration not stated) | > 100 µM |
| COC(=O)[C@@]12CSC[C@]1(C(=O)OC)N[C@@H](c1ccccc1O)C2 | > 100 µM |
| N.N.N.N.N#N.N#N.[Cl-].[Os+6] | > 100 µM |
| COc1ccc(-c2cc(-c3ccc(C)cc3)n(C3OC(COC(C)=O)C(OC(C)=O)C(OC(C)=O)C3OC(C)=O)c(=S)c2C#N)cc1 (configuration not stated) | > 100 µM |
| O=C(O)CCCN1C(=O)/C(=C/C(Cl)=C/c2ccccc2)SC1=S | 4.63 µM |
| Cc1nc(-n2nc(-c3ccccc3)cc2-c2ccccc2)sc1C(=O)CC(=O)C(=O)Nc1ccc(Cl)c(Cl)c1 | > 100 µM |
| COC1CCCc2c(OC(C)=O)ccc(OC(C)=O)c21 (configuration not stated) | > 100 µM |
| O=C(CCN1CCCC1)Nc1ccc2c(Nc3ccc(F)cc3)c3ccccc3nc2c1 | 3.03 µM |
| O=C(CCCc1cccc2[nH]c3c(c12)CN(Cc1ccccc1)CC3)c1ccc(F)cc1 | > 100 µM |
| Cc1cc2ncn(CC(=O)O)c2cc1C | > 100 µM |
| N#CN1CC[C@@H]2CC3(CCC2C1)OCCO3 (some centres not stated) | > 100 µM |
| COc1cc2ncnc(NS(=O)(=O)c3cc4ccccc4s3)c2cc1OC | > 100 µM |
| COc1ccc2[nH]c3c(C)c4c(c(C)c3c2c1)CN(C)C=C4 | 1.45 µM |
